# System Under Test: T1, EsCas13d, nuclease-dead (Eubacterium siraeum, UniProt B0MS50, R295A;H300A;R849A;H854A)
# T1 sequence: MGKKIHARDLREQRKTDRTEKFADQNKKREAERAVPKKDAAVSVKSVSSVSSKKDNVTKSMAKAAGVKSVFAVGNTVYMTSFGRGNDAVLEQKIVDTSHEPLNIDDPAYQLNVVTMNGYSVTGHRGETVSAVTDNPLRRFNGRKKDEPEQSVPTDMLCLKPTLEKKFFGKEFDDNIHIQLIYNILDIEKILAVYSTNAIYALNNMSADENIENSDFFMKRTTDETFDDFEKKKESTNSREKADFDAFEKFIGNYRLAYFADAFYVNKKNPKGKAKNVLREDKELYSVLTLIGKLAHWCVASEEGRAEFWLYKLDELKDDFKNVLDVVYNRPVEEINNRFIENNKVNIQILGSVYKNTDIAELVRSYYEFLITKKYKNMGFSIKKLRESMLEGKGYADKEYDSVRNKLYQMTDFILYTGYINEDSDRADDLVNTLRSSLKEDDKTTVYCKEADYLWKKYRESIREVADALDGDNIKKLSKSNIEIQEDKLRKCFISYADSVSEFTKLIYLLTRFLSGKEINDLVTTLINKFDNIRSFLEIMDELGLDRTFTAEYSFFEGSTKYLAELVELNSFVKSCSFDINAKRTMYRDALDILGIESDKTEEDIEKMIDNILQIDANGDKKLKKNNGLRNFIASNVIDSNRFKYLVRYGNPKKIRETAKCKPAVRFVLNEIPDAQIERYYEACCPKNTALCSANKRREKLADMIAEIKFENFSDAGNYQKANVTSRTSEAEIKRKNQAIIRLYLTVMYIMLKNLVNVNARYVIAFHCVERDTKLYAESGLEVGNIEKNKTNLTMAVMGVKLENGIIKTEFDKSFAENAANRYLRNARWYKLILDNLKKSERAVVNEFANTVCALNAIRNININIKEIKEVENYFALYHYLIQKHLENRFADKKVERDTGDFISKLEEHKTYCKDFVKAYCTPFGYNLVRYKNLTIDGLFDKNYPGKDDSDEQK
# Assay Method Text: crRNA (strand 1, pre-loaded); Mg2+; 40 mM Tris-HCl pH 7.5, 150 mM NaCl, 6 mM MgCl2, 1 mM DTT, 0.1% Tween-20, 0.2 mg/ml BSA; 25 C; 10 min per concentration, then washed
# Experimental Setup: tags: His6-TwinStrep-SUMO cleaved; N-terminal SNAP kept (SNAP-Surface 488); label: 3' end held by stalled T7 RNA polymerase
Recorded Metric: pKd
The value called pKd is obtained by taking minus log10 of the concentration in mol/L.

Query: Give pKd for the following binder: target 3 insU 3' of 22,insU 3' of 3 (mixed) RNA 1: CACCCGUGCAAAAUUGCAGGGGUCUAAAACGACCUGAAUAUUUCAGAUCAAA RNA 2: GGGAAUGGAUCCACAUCUACGAAUUCGUUUUUUGAUCUGAAAUAUUCAGGUUCUGCAGAUCGGAAGAGCACACGU
Reply: 7.57

Query: Give pKd for the following binder: target 2 MT 5'PFS GUU 3'PFS ACA (mixed) RNA 1: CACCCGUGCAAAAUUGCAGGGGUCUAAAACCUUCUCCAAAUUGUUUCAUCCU RNA 2: GGGAAUGGAUCCACAUCUACGAAUUCGUUAGGAUGAAACAAUUUGGAGAAGACAAGAUCGGAAGAGCACACGU
Reply: 7.76

Query: Supply recorded pKd for target 3 A5G,U22A (mixed) RNA 1: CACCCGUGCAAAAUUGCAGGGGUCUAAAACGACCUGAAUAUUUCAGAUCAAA RNA 2: GGGAAUGGAUCCACAUCUACGAAUUCGUUAUUGAUCUGAAAUAUUCGGGUCUGCAGAUCGGAAGAGCACACGU here.
Reply: 7.66

Query: Item target 1 C7U,U8C (mixed) RNA 1: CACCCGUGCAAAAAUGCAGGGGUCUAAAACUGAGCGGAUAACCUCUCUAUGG RNA 2: GGGAAUGGAUCCACAUCUACGAAUUCGUACCAUAGAGAGGUUACUCGCUCACCGAGAUCGGAAGAGCACACGU : provide pKd
Reply: 8.06
